These data points were gathered from paper PMC11859980.

Measurement description: In vivo pharmacokinetic study of Sel in plasma and brain
Measurement context: male, albino, rat, in vivo, iv, 1 mg/kg
Method: All animal experiments were conducted in compliance with the guidelines of the ethical committee, Faculty of Pharmacy, University of Sadat City (approval number RERC-FOP-USC-24-02-08). Adult male albino rats (200 g ± 10%) were randomly divided into two groups each of 48 animals. […] Sel concentration in plasma and brain was quantified using LCMS/MS [49, 50]. […] All pharmacokinetics data were calculated using the pharmacokinetic software PK Solver-Add Ins for Microsoft Excel 2007. […]
Measurement name: bioavailability

Field request: bioavailability | item: `C#CCN(C)[C@H](C)Cc1ccccc1`
100%

* * *

Measurement description: In vivo pharmacokinetic study of Sel in plasma and brain
Measurement context: male, albino, rat, in vivo, iv, 1 mg/kg
Measurement name: Tmax (min)
Your answer is read as min, so omit the unit and give the number.

I am curious: what Tmax value has been reported for C#CCN(C)[C@H](C)Cc1ccccc1 [IV Sel solution, Selegiline] ?
30

* * *

Measurement description: In vivo pharmacokinetic study of Sel in plasma and brain
Measurement context: male, albino, rat, in vivo, iv, 1 mg/kg, AUC0–∞, brain, rat brain; Sel 1 mg/kg; route as in label
Measurement name: AUC(0-inf)
Reply with the number, then its unit.

I have this molecule here, `C#CCN(C)[C@H](C)Cc1ccccc1` , and I need its recorded AUC(0-inf).
1220 ng·h/mL

* * *

Measurement description: In vivo pharmacokinetic study of Sel in plasma and brain
Measurement context: male, albino, rat, in vivo, iv, 1 mg/kg, Kel, plasma, rat plasma; Sel 1 mg/kg; route as in label
Measurement name: k el (s⁻¹)
Numbers only here, please. The scale is s⁻¹.

What measured k el goes with `C#CCN(C)[C@H](C)Cc1ccccc1` ?
4.72e-05

* * *

Measurement description: In vivo pharmacokinetic study of Sel in plasma and brain
Measurement context: male, albino, rat, in vivo, iv, 1 mg/kg, Kel, brain, rat brain; Sel 1 mg/kg; route as in label
Measurement name: k el (s⁻¹)
Response body: numeric value in s⁻¹, unit text excluded.

// k el lookup, key: `C#CCN(C)[C@H](C)Cc1ccccc1`
4.44e-05

* * *

Measurement description: In vivo pharmacokinetic study of Sel in plasma and brain
Measurement context: male, albino, rat, in vivo, iv, 1 mg/kg, AUC0–480min, brain, rat brain; Sel 1 mg/kg; route as in label
Measurement name: AUC(0-t) (ng·h/mL)
Unit ng·h/mL implied. Number only.

Data request, read-out AUC(0-t), for C#CCN(C)[C@H](C)Cc1ccccc1 [IV Sel solution, Selegiline]
850

* * *

Measurement description: In vivo pharmacokinetic study of Sel in plasma and brain
Measurement context: male, albino, rat, in vivo, iv, 1 mg/kg, AUC0–480min, plasma, rat plasma; Sel 1 mg/kg; route as in label
Measurement name: AUC(0-t) (ng·h/mL)
Write the answer as a number in ng·h/mL, unit excluded.

Fill in: AUC(0-t) of `C#CCN(C)[C@H](C)Cc1ccccc1` is ___
1160

* * *

Measurement description: In vivo pharmacokinetic study of Sel in plasma and brain
Measurement context: male, albino, rat, in vivo, iv, 1 mg/kg, MRT, plasma, rat plasma; Sel 1 mg/kg; route as in label
Measurement name: MRT
Report as: number unit

What does the data say about its MRT? Entry: `C#CCN(C)[C@H](C)Cc1ccccc1`
4.22 h
